target: AKT1 E17K (Homo sapiens (Human), UniProt P31749, E17K); assay: Dissociation rate by intact protein LCMS after ARQ092 chase; type: binding; details: ratio of t1/2
Sequence (P31749 2-480 E17K): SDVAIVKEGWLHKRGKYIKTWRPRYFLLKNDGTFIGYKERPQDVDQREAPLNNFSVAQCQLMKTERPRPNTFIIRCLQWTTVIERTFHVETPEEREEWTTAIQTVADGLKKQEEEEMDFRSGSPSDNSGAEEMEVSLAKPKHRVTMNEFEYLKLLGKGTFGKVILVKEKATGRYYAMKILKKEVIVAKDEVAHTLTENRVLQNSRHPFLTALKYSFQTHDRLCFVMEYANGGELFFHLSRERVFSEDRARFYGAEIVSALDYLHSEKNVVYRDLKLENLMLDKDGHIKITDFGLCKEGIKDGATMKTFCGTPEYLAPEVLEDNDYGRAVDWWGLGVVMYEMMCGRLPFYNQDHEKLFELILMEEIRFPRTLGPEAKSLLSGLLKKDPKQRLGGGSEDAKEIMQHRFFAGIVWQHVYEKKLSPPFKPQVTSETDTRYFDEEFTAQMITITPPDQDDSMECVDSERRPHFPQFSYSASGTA
PARAMETER: Off-rate Selectivity E17K/WT

| MOLECULE | ASSAY SYSTEM | VALUE OBSERVED |
| --- | --- | --- |
| Nc1ncccc1-c1nc2cccnc2n1-c1ccc(CNC(=O)C(F)c2ccc(C=O)c(O)c2)cc1 (stereo not drawn) | AKT1 E17K (Homo sapiens (Human), UniProt P31749, E17K) | 6.1 |
| Nc1ncccc1-c1nc2ccc(-c3ccccc3)nc2n1-c1ccc(C2(NC(=O)Cc3ccc(C=O)c(O)c3F)CC2)cc1 | AKT1 E17K (Homo sapiens (Human), UniProt P31749, E17K) | 1.8 |
| Nc1ncccc1-c1nc2cccnc2n1-c1ccc(CNC(=O)Cc2ccc(C=O)c(O)c2)cc1 | AKT1 E17K (Homo sapiens (Human), UniProt P31749, E17K) | 5.2 |
| CC(=O)Nc1cc(CCNCc2ccc(-n3c(-c4cccnc4N)nc4ccc(-c5ccccc5)nc43)cc2)ccc1C=O | AKT1 E17K (Homo sapiens (Human), UniProt P31749, E17K) | 8.8 |
| Nc1ncccc1-c1nc2ccc(-c3ccccc3)nc2n1-c1ccc(CNC(=O)Cc2ccc(C=O)c(O)c2F)cc1 | AKT1 E17K (Homo sapiens (Human), UniProt P31749, E17K) | 4.6 |
| Nc1ncccc1-c1nc2ccc(-c3ccccc3)nc2n1-c1ccc(CNC(=O)c2ccc(O)c(C=O)c2)cc1 | AKT1 E17K (Homo sapiens (Human), UniProt P31749, E17K) | 3.8 |
| Nc1ncccc1-c1nc2ccc(-c3cccc(N4CCOCC4)c3)nc2n1-c1ccc(CNC(=O)Cc2ccc(C=O)c(O)c2F)cc1 | AKT1 E17K (Homo sapiens (Human), UniProt P31749, E17K) | 1.5 |
| Nc1ncccc1-c1nc2ccc(-c3ccccc3)nc2n1-c1ccc(CNCCc2ccc(C=O)cc2)cc1 | AKT1 E17K (Homo sapiens (Human), UniProt P31749, E17K) | 3.9 |
| Nc1ncccc1-c1nc2ccc(-c3ccccc3)nc2n1-c1ccc(CNCCc2ccc(C=O)c(O)c2)cc1 | AKT1 E17K (Homo sapiens (Human), UniProt P31749, E17K) | 5.6 |
